Data provenance is patent US20250340595A1.

molecular target: Human TfR1 protein (R&D Systems, 2474-TR or Acro Biosystems, CD1-H5243) (human, UniProt P02786 89-760); test: FP competition, competitor BCY15768
Sequence (P02786 89-760 limits assumed): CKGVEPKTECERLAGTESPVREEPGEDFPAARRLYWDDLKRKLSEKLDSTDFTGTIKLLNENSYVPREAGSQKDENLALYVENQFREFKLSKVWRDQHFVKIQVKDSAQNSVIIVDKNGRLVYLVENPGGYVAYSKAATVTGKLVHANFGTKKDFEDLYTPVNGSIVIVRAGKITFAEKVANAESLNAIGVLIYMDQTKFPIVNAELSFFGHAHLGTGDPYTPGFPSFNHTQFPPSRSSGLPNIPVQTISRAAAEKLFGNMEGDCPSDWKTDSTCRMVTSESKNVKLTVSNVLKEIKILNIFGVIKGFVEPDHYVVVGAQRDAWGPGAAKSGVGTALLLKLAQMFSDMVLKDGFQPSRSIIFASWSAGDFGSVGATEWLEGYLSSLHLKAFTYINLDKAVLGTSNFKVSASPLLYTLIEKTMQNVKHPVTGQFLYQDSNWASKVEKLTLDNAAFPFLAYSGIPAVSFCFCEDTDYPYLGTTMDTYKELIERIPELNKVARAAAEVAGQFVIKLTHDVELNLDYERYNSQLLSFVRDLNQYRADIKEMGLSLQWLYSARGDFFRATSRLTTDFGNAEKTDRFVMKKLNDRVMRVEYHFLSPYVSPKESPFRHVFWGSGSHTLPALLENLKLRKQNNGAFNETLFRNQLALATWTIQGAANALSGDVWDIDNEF
Starred links: 1 amine or outer side, 2 acyl side, 3 side chain; linkers in the order of their positions; H or OH if unused. Positions of bridges follow the written chain, without caps; N, C: chain ends. Non-standard residues stand in square brackets, D forms with d. No end group written: not given here. TATB = O=C(C[*:1])N1CN(C(=O)C[*:2])CN(C(=O)C[*:3])C1; Tle = CC(C)(C)[C@H](N)C(=O)O; Aib = CC(C)(N)C(=O)O
So basically: is Ki under 70 nM? Then True. Not under? Then False.

BINDER	CLASS_NAME
ACSPDAHLGCXSYCA (3 Cys on TATB; core as printed CSPDAHLGC[B-Melle]SYC (beta-methyl isoleucine)) [BCY16040]	False
ACSPDAHLGCISYCPHP-NH2 (linker 2-10-14 via TATB (inferred)) [BCY17115]	True
ACSPDAHLGC[Tle]SYCA (linker 2-10-14 via TATB) [BCY16051]	True
ACPQDAYLGCISWCA (linker 2-10-14 via TATB) [BCY15467]	False
ACYLPDWXCGDEYCA (not fully specified; 3 Cys on TATB; core as printed CYLPDW[tBuAla]CGDEYC) [BCY15648]	False

Here is the next item to consider.
QUERY: hey, is Ki for ACS[Aib]DAHLGC[Tle]SYCA (linker 2-10-14 via TATB) [BCY16753] lower than 70 nM or not?
RESULT: True
